Each recorded value in this set is attributed to PubChem BioAssay (EPA / NIEHS).

test.details: BSK_CASM3C_SRB: Viability Assessment in the BioMAP Diversity Plus: CASM3C Assay (AID 2283050);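 further: total protein by SRB staining as cytotoxicity measure in parallel cultures; cells exposed to compound for 24 h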
study.conditions: primary human coronary artery smooth muscle cells
Activity calls are given as the source filed them. How the source made its calls: active means hit-call score of the fitted dose curve at least 0.9, where 1 is the maximum; inactive means score below 0.9.
One label from this list, please: active, inactive

Illustrative cases are given below, each with its answer.
compound	label.value
ClC1(Cl)C2(Cl)C3(Cl)C4(Cl)C(Cl)(Cl)C5(Cl)C3(Cl)C1(Cl)C5(Cl)C24Cl (centres undefined)	inactive
CCC(=O)C(CC(C)N(C)C)(c1ccccc1)c1ccccc1 (centres undefined)	inactive
COP(=S)(OC)Oc1cc(Cl)c(Cl)cc1Cl	inactive
O=c1[nH]c(=O)[nH]c(=O)[nH]1	inactive
Nc1cccc2ccccc12	inactive

Exercise: // param item: "ClC(Cl)=C(Cl)C(Cl)=C(Cl)Cl" ; yields the recorded call
Key: inactive

Exercise: Per the assay record, what outcome was assigned to "CC(C)(C)c1cc(O)ccc1O" ?
Key: inactive

Exercise: Hi, sorry to bother you, what did the test record for "O=C(O)C(Cl)(Cl)Cl" ?
Key: inactive

====

target.entity: Hypoxia-inducible factor 1-alpha (Homo sapiens) (UniProt Q16665)
Sequence (Q16665 whole entry, looked up): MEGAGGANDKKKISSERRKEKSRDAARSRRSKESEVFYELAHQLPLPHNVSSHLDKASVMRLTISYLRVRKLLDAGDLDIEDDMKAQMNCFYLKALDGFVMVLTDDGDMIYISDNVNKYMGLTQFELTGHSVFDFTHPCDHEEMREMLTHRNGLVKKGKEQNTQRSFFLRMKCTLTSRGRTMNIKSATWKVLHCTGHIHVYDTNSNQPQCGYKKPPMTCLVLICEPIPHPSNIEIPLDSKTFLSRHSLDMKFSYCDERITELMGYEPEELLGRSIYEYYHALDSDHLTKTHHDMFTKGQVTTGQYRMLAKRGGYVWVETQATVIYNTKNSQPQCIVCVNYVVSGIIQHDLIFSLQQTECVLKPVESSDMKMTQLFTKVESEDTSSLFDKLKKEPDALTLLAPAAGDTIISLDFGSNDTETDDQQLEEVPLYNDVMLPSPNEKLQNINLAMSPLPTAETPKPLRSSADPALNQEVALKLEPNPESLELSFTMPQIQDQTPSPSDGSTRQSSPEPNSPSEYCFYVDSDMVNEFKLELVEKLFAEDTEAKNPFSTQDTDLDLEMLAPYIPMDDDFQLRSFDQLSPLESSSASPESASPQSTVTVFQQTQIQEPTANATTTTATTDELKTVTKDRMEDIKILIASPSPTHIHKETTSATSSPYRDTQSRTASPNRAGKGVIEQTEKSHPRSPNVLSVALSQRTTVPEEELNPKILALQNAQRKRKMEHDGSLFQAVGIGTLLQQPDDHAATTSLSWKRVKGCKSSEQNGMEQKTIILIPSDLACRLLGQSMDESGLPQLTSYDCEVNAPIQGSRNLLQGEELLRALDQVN
test.details: ATG_HIF1a_CIS: Attagene CIS-FACTORIAL HepG2 Assay for human Hypoxia Inducible Factor 1 (HIF1A) (AID 2282951)
study.conditions: HepG2 Attagene cis-factorial HIF1a reporter transcription; actives raise or lower the signal
Active and inactive are the calls of the source. Rule for the calls: active = hit-call score of the fitted dose curve at least 0.9, where 1 is the maximum; inactive = score below 0.9.
API: response.call in active, inactive

As a guide, the following entries are already answered.
molecule	label.value
CC1CN1P(=O)(N1CC1C)N1CC1C (configuration not stated)	inactive
CCOP(=O)(CN(CCO)CCO)OCC	inactive
Nc1cccc2ccccc12	active
CC(=O)C(Cl)C(=O)N(C)C (configuration not stated)	inactive
CCc1ccccc1N	inactive
[O-][Cl+2]([O-])O	inactive
N#CCCO	inactive
COC(=O)Cc1ccccc1	inactive

Exercise: Record lookup: outcome of this test for "CCC(=O)c1ccccc1" ?
Key: inactive

Exercise: Status in this test for "CCOP(=S)(OCC)SCSP(=S)(OCC)OCC" ?
Key: inactive

Exercise: Given "CC(C)c1ccc(CO)cc1" , state the outcome it received in this test.
Key: inactive

Exercise: # fetch the recorded call for Clc1ccc(C2(Cn3cncn3)CC(Br)CO2)c(Cl)c1 (configuration not stated) here
Key: active

Exercise: Which outcome was entered for the molecule "CCC[CH2][Sn]([CH2]CCC)([CH2]CCC)[O]C(=O)c1ccccc1" in this test?
Key: inactive

Exercise: Query: recorded result category for "C[C@H]1O[C@@H](O[C@H]2[C@@H](O)C[C@H](O[C@H]3[C@@H](O)C[C@H](O[C@H]4CC[C@@]5(C)[C@H](CC[C@@H]6[C@@H]5CC[C@]5(C)[C@@H](C7=CC(=O)OC7)CC[C@]65O)C4)O[C@@H]3C)O[C@@H]2C)C[C@H](O)[C@@H]1O" in this test
Key: inactive

Exercise: Answer briefly: the call reported for ClC1(Cl)C2(Cl)C3(Cl)C4(Cl)C(Cl)(Cl)C5(Cl)C3(Cl)C1(Cl)C5(Cl)C24Cl (configuration not stated) in this assay.
Key: inactive

Exercise: What outcome does the record of this test show for "NC(=O)O" ?
Key: inactive

====

target.entity: Peroxisome proliferator-activated receptor gamma (Homo sapiens)
test.details: ATG_PPARg_TRANS: Attagene TRANS-FACTORIAL HepG2 Assay for human Peroxisome Proliferator-activated Receptor-gamma (PPARg) (AID 2283007)
Inconclusive results are not listed. Activity calls are given as the source filed them. How the source made its calls: active means hit-call score of the fitted dose curve at least 0.9, where 1 is the maximum; inconclusive means response in the unintended direction; inactive means score below 0.9.
property.label: AC50

compound	measurement
Oc1cccc2cccnc12	inactive
COc1cc(OC)nc(NC(=O)NS(=O)(=O)c2ncccc2C(=O)N(C)C)n1	inactive
COc1ccc(OC)c(C=O)c1	inactive
O=[N+]([O-])c1ccc2c3c(cccc13)CC2	22.7 µM (active)
C[C@]12CC[C@H](O)CC1=CC[C@@H]1[C@@H]2CC[C@]2(C)C(=O)CC[C@@H]12	inactive
ClC(Cl)=C(Cl)C(Cl)=C(Cl)Cl	inactive
CC(C)(C)c1cc(O)ccc1O	52.5 µM (active)
CC12CC1(C)C(=O)N(c1cc(Cl)cc(Cl)c1)C2=O (stereo not given)	inactive
CC(=[OH+])/C=C(/C)[O-].CC(=[OH+])/C=C(/C)[O-].CC(=[OH+])/C=C(/C)[O-].[Al]	inactive
COS(=O)(=O)c1ccc(C)cc1	inactive

The measured AC50 that "CC(C)(OO)c1ccccc1" showed for Peroxisome proliferator-activated receptor gamma (Homo sapiens) is inactive

Simply: "O=C(OC1CCCCC1)c1ccccc1C(=O)OC1CCCCC1" , Peroxisome proliferator-activated receptor gamma (Homo sapiens), AC50 = 8.15 µM (active)

CCC1(c2ccc(N)cc2)CCC(=O)NC1=O (stereo not given) tested on Peroxisome proliferator-activated receptor gamma (Homo sapiens) gave AC50: inactive

The recorded AC50 with Peroxisome proliferator-activated receptor gamma (Homo sapiens) for "CC(C)c1cccc(C(C)C)c1O" was inactive

Query "Nc1ccc(N=Nc2ccc(-c3ccc(N=Nc4c(S(=O)(=O)O)cc5cc(S(=O)(=O)O)c(N=Nc6ccccc6)c(O)c5c4N)cc3)cc2)c(N)c1" on Peroxisome proliferator-activated receptor gamma (Homo sapiens); AC50 returned: inactive
